Molecular target: human integrin αVβ8 (Homo sapiens, UniProt P06756+P26012)
Sequence (P06756 31-992 limits assumed): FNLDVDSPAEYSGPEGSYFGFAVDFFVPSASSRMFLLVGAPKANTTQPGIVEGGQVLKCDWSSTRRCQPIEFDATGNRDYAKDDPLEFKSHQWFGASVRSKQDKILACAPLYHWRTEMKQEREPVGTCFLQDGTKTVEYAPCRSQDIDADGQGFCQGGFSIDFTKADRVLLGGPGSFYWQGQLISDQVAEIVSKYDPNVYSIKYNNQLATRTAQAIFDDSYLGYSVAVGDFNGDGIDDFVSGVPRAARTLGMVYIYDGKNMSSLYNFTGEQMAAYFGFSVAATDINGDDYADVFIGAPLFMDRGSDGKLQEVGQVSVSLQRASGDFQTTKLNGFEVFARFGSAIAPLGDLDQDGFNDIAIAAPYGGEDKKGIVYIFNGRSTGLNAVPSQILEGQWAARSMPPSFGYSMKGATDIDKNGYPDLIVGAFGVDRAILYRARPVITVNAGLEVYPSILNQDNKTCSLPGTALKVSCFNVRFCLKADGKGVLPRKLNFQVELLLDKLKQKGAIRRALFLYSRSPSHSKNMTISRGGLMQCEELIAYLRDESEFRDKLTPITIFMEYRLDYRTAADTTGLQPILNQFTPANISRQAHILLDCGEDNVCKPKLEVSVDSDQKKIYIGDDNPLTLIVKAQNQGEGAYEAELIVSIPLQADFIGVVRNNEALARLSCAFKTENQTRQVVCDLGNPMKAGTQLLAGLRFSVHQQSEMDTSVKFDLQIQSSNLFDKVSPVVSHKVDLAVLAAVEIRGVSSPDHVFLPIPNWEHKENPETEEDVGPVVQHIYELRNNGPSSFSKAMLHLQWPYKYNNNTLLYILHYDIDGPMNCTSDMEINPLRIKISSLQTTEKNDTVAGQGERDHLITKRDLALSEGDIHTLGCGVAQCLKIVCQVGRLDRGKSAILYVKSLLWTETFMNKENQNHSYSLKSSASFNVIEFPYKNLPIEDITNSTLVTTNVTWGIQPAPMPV
Sequence (P26012 43-684 limits assumed): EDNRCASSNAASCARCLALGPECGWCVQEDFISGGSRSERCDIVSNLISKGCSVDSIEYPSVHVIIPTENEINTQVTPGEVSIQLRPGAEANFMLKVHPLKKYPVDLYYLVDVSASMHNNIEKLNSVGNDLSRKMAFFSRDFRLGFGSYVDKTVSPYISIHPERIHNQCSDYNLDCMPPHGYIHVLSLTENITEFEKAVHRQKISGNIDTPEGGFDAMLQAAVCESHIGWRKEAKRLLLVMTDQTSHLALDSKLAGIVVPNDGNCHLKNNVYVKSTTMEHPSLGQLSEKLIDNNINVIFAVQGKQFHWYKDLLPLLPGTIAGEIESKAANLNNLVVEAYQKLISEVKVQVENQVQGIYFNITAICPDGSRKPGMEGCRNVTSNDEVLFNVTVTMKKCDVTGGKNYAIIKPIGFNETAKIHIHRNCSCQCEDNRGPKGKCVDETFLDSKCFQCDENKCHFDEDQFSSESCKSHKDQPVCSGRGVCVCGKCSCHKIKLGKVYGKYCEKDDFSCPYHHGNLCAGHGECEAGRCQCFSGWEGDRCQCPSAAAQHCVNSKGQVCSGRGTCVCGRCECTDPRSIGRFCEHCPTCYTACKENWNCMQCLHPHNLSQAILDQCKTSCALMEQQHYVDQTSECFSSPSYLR
Experiment: AlphaScreen proximity-based integrin binding assay with TGF-b1 LAP
Details: values given as ranges
Protocol: The biochemical potency of the disclosed compounds was determined using the AlphaScreen® (Perkin Elmer, Waltham, MA) proximity-based assay as described previously (Ullman E F et al., Luminescent oxygen channeling immunoassay: Measurement of particle binding kinetics by chemiluminescence. Proc. Natl. Acad. Sci. USA, Vol. 91, pp. 5426-5430, June 1994, herein incorporated by reference in its entirety). […] 2. […] After another 30 minute incubation, samples were then read. […]
pIC50: −log10 of the molar value.
# pIC50 listing for each entry below

// known answers, use as guide
compound: O=C(O)[C@H](CCOCCCCc1ccc2c(n1)NCCC2)NC(=O)C1(c2ncccc2OC(F)F)CC1
reported.metric: pIC50
endpoint.value: > 7.30
--
compound: COc1nccc(Cl)c1C1(C(=O)N[C@@H](CCOCCCCc2ccc3c(n2)NCCC3)C(=O)O)CC1
reported.metric: pIC50
endpoint.value: 6.82 to 7.30
--
compound: Cc1ncnc(C)c1C1(C(=O)N[C@@H](CCOCCCCc2ccc3c(n2)NCCC3)C(=O)O)CC1
reported.metric: pIC50
endpoint.value: 6.82 to 7.30

Query block: Given Cc1ncnc(Cl)c1C1(C(=O)NC(CCOCCCCc2ccc3c(n2)NCCC3)C(=O)O)CC1 (centres unmarked) , respond with its pIC50.
Result block: > 7.30

Query block: Recall and state the measured pIC50 for Cn1ncc(Cl)c1C1(C(=O)N[C@@H](CCOCCCCc2ccc3c(n2)NCCC3)C(=O)O)CC1 .
Result block: > 7.30

Query block: Give the reported pIC50 for this compound. CC(C)(C(=O)N[C@@H](CCOCCCCc1ccc2c(n1)NCCC2)C(=O)O)c1ccccc1Cl
Result block: 6.82 to 7.30

Query block: Return pIC50 (reported value) for this compound: O=C(O)[C@H](CCOCCCCc1ccc2c(n1)NCCC2)NC(=O)C1(n2c(C3CC3)cccc2=O)CC1
Result block: 6.82 to 7.30

Query block: Indicate its recorded pIC50; the compound in question is COc1ncnc(Cl)c1C1(C(=O)N[C@@H](CCOCCCCc2ccc3c(n2)NCCC3)C(=O)O)CC1
Result block: > 7.30

Query block: Query pIC50 for Cc1ncccc1C1(C(=O)N[C@@H](CCOCCCCc2ccc3c(n2)NCCC3)C(=O)O)CC1
Result block: > 7.30

Query block: Return pIC50 (reported value) for this compound: O=C(O)[C@H](CCOCCCCc1ccc2c(n1)NCCC2)NC(=O)C1(c2cnccn2)CC1
Result block: 6.82 to 7.30

Query block: Input O=C(O)[C@H](CCOCCCCc1ccc2c(n1)NCCC2)NC(=O)C1(c2ncccc2C(F)F)CC1 , output reported pIC50.
Result block: > 7.30

Query block: Annotate the compound O=C(O)[C@H](CCOCCCCc1ccc2c(n1)NCCC2)NC(=O)C1(c2c(Cl)cn[nH]c2=O)CC1 with its measured pIC50.
Result block: > 7.30

Query block: Let me know recorded pIC50 for O=C(O)[C@H](CCOCCCCc1ccc2c(n1)NCCC2)NC(=O)C1(C(F)(F)F)CCOCC1 , thanks.
Result block: > 7.30

Query block: State its pIC50 for this compound: O=C(O)[C@H](CCOCCCCc1ccc2c(n1)NCCC2)NC(=O)C1(c2cc(F)cnc2F)CC1
Result block: > 7.30
